Overview of recorded S.I. (selectivity index) for various molecules
# Test system: HCT116 p53+/+ cells
# protocol-text: Antiproliferative activity, sulforhodamine B (SRB) assay
# Assay type: cell-based, human
# condition-notes: HCT116 p53−/− versus HCT116 p53+/+
# Method: Tumor cells were cultured in RPMI-1640 with UltraGlutamine (Lonza, VWR), supplemented with 10% fetal bovine serum (FBS; Gibco, Alfagene) and maintained in a humidified incubator at 37 °C with 5% CO2. Cell lines were seeded in 96-well plates at the cells/well density of 5.0 × 10^3.
The reply should be a number, written without any unit.

# molecule, recorded-result
records = [
    ("O=C1c2ccccc2[C@@]2(c3ccccc3)OC[C@H](Cc3c(Br)[nH]c4ccccc34)N12 [Compound 13a]", 0.7),
    ("CC(=O)n1c(Br)c(C[C@H]2CO[C@]3(c4ccccc4)c4ccccc4C(=O)N23)c2ccccc21 [Compound 13m]", 1.7),
]

Case CS(=O)(=O)n1c(Br)c(C[C@H]2CO[C@]3(c4ccccc4)c4ccccc4C(=O)N23)c2ccccc21 [Compound 13n] , HCT116 p53+/+ cells, S.I. (selectivity index) recorded as 1.1

Case O=C1c2ccccc2[C@@]2(c3ccccc3)OC[C@H](Cc3c(Br)n(Cc4ccccc4)c4ccccc34)N12 [Compound 13k] , HCT116 p53+/+ cells, S.I. (selectivity index) recorded as 3.8

Case Cc1ccc(S(=O)(=O)n2c(Br)c(C[C@H]3CO[C@]4(c5ccccc5)c5ccccc5C(=O)N34)c3ccccc32)cc1 [Compound 13o] , HCT116 p53+/+ cells, S.I. (selectivity index) recorded as 0.6

---

# protocol-text: Human liver microsomes incubations: half-life and intrinsic clearance
# Type: in vitro ADME
# condition-notes: human, liver microsomes, pH 7.4; HLM 1 mg protein/mL, 10 μM, NADPH, 37 °C
quantity-measured: half-life at 10 μM (h)

Here are 2 molecules together with their reported answers.
# molecule, half-life at 10 μM, h
measured = [
    ("CC12OCC(Cc3c[nH]c4ccccc34)N1C(=O)c1ccccc12 (stereo not shown)", 2.3),
    ("Cn1cc(C[C@H]2CO[C@]3(c4ccccc4)c4ccccc4C(=O)N23)c2ccccc21", 2.45),
]

a: CCCn1c(Br)c(C[C@H]2CO[C@]3(c4ccccc4)c4ccccc4C(=O)N23)c2ccccc21 [Compound 13d]
b: O=C1c2ccccc2[C@@]2(c3ccccc3)OC[C@H](Cc3c(Br)n(Cc4ccccc4)c4ccccc34)N12 [Compound 13k]
In terms of reported half-life at 10 μM, does a or b have the smaller number? Use the label to indicate which entry you chose.
a

---

# Tested on: HCT116 p53+/+ cells
# protocol-text: Antiproliferative activity, sulforhodamine B (SRB) assay
# Assay type: cell-based, human
# condition-notes: HCT116 p53−/− versus HCT116 p53+/+
quantity-measured: S.I. (selectivity index)
The reply should be a number, written without any unit.

The reported value for O=C1c2ccccc2[C@@]2(c3ccc(Cl)cc3)OC[C@H](Cc3c(Br)[nH]c4ccccc34)N12 [Compound 13h] in terms of S.I. (selectivity index) is 1.0

The reported value for CCn1c(Br)c(C[C@H]2CO[C@]3(c4ccccc4)c4ccccc4C(=O)N23)c2ccccc21 [Compound 13j] in terms of S.I. (selectivity index) is 1.2

The reported value for Cn1c(Br)c(C[C@H]2CO[C@]3(c4ccccc4)c4ccccc4C(=O)N23)c2ccccc21 [Compound 13c] in terms of S.I. (selectivity index) is 0.4

The reported value for O=C1c2ccccc2[C@@]2(c3ccc(F)cc3)OC[C@H](Cc3c(Br)[nH]c4ccccc34)N12 [Compound 13g] in terms of S.I. (selectivity index) is 1.0

---

# System: HCT116 p53+/+ cells
# protocol-text: Antiproliferative activity, sulforhodamine B (SRB) assay
# Format: cell-based, human
# condition-notes: HCT116 p53−/− versus HCT116 p53+/+
Overview of recorded S.I. (selectivity index) for various compounds
The reply should be a number, written without any unit.

Here are 2 compounds together with their reported answers.
# compound, S.I. (selectivity index)
measured = [
    ("CCCn1c(Br)c(C[C@H]2CO[C@]3(c4ccccc4)c4ccccc4C(=O)N23)c2ccccc21 [Compound 13d]", 1.9),
    ("O=C1c2ccccc2[C@@]2(c3ccc(Cl)c([N+](=O)[O-])c3)OC[C@H](Cc3c(Br)[nH]c4ccccc34)N12 [Compound 13i]", 1.0),
]

Now consider the entry below.
The reported value for Cn1cc(C[C@H]2CO[C@]3(c4ccccc4)c4ccccc4C(=O)N23)c2ccccc21 in terms of S.I. (selectivity index) is 2.1
